Property: pIC50; scope: individual compounds
assay protocol: Inhibition of P-gp mediated [3H]VIN efflux in MDCK2-MDR1 cells by scintillation counter
Assay type: cell-based
measurement parameters: MDCK-II
pIC50: −log10 of the molar value.
attribute measured: pIC50

[[record]]
compound = "CN(C)c1ccc(-c2cc(-c3ccc(C(=S)N4CCCCC4)s3)cc(-c3ccc(N(C)C)cc3)[s+]2)cc1.[Cl-]"
readout_number = 5.18

[[record]]
compound = "CN(C)c1ccc(-c2cc(-c3ccc(C(=S)N4CCCCC4)s3)cc(C(C)(C)C)[s+]2)cc1.[Cl-]"
readout_number = 4.94

[[record]]
compound = "CN(C)c1ccc(-c2cc(-c3ccc(C(=O)N4CCCCC4)s3)cc(-c3ccc(N(C)C)cc3)[s+]2)cc1.F[P-](F)(F)(F)(F)F"
readout_number = 5.23

